Recorded Relative Sub G1, one value per entry.
tested on: AGS cell strain; assay: Effect on cell cycle (propidium iodide staining, FACS, sub G1); assay type: cell-based; conditions: mimic 10 nM, 10 uM 5-FU 24 h after transfection, then 48 hours, relative to scrambled control (=1)
// no unit, no text: just the number

The cases that follow already have their Relative Sub G1 on record.
| SUBSTANCE | Relative Sub G1 |
| --- | --- |
| BART2-5p: EBV BART miRNA mimic, double stranded RNA; sense SEQ NO: 85, antisense SEQ NO: 86 (sense UAUUUUCUGCAUUCGCCCUUGC; antisense GCAAGGGCGAAUGCAGAAAAUA; chemistry not given here) | 1.092 |
| BART16-5p: EBV BART miRNA mimic, double stranded RNA; sense SEQ NO: 21, antisense SEQ NO: 22 (sense UUAGAUAGAGUGGGUGUGUGCUCU; antisense AGAGCACACACCCACUCUAUCUAA; chemistry not given here) | 1.182 |
| BART6-3p: EBV BART miRNA mimic, double stranded RNA; sense SEQ NO: 31, antisense SEQ NO: 32 (sense CGGGGAUCGGACUAGCCUUAGA; antisense UCUAAGGCUAGUCCGAUCCCCG; chemistry not given here) | 1.24 |
| BART17-3p: EBV BART miRNA mimic, double stranded RNA; sense SEQ NO: 27, antisense SEQ NO: 28 (sense UGUAUGCCUGGUGUCCCCUUAGU; antisense ACUAAGGGGACACCAGGCAUACA; chemistry not given here) | 1.067 |
| BART8-5p: EBV BART miRNA mimic, double stranded RNA; sense SEQ NO: 45, antisense SEQ NO: 46 (sense UACGGUUUCCUAGAUUGUACAG; antisense CUGUACAAUCUAGGAAACCGUA; chemistry not given here) | 1.013 |
| BART20-3p: EBV BART miRNA mimic, double stranded RNA; sense SEQ NO: 75, antisense SEQ NO: 76 (sense CAUGAAGGCACAGCCUGUUACC; antisense GGUAACAGGCUGUGCCUUCAUG; chemistry not given here) | 1.618 |
| BART21-5p: EBV BART miRNA mimic, double stranded RNA; sense SEQ NO: 33, antisense SEQ NO: 34 (sense UCACUAGUGAAGGCAACUAAC; antisense GUUAGUUGCCUUCACUAGUGA; chemistry not given here) | 1.087 |
| BART5-5p: EBV BART miRNA mimic, double stranded RNA; sense SEQ NO: 17, antisense SEQ NO: 18 (sense CAAGGUGAAUAUAGCUGCCCAUCG; antisense CGAUGGGCAGCUAUAUUCACCUUG; chemistry not given here) | 2.111 |

Please find the next substance below.
Ask: Which value of Relative Sub G1 has been reported for BART15-5p: EBV BART miRNA mimic, double stranded RNA; sense SEQ NO: 13, antisense SEQ NO: 14 (sense AGGGAAACAUGACCACCUGAAGUC; antisense GACUUCAGGUGGUCAUGUUUCCCU; chemistry not given here) in the records?
Result: 0.8195
